Taken from patent US5298652A.

# Tested on: TPA-induced mouse ear edema
# Assay protocol: TPA induced mouse ear edema test
# Assay type: in vivo, male CD-1 mice
# Conditions used: 1 mg topical, 30 minutes prior to TPA; ear punch weight at 6 hours
// boundary case: % Inhib of TPA Mouse Ear Edema (1 mg) equal to 50% maps to FALSE; strictly smaller maps to TRUE

Past entries and their recorded results:
{"Structure notation": "CCCCCCCCCCCCCCCCCCOc1ccc(OCCCOc2ccc(O)cc2)c(C(=O)N(CC(=O)O)CC(=O)O)c1", "Assigned class": "FALSE"}
{"Structure notation": "O=C(O)CN(CC(=O)O)C(=O)c1cc(OCCCCCCCCCCCCOc2ccccc2)ccc1OCc1ccccc1", "Assigned class": "FALSE"}
{"Structure notation": "CCCCCCCCCCCCCCCCCCOc1ccc(OCCCc2ccccc2)c(C(=O)N(CC(=O)O)CC(=O)O)c1", "Assigned class": "FALSE"}

**Query** Threshold test, % Inhib of TPA Mouse Ear Edema (1 mg) < 50%: O=C(O)CN(CC(=O)O)C(=O)c1cc(OCCCCCCOc2ccc(-c3ccccc3)cc2)ccc1OCc1ccccc1
**Result** FALSE

**Query** Threshold test, % Inhib of TPA Mouse Ear Edema (1 mg) < 50%: CCCCCCCCCCCCCCOc1ccc(OCc2ccccc2)c(C(=O)N(CC(=O)O)CC(=O)O)c1
**Result** TRUE

**Query** Threshold test, % Inhib of TPA Mouse Ear Edema (1 mg) < 50%: O=C(O)CN(CC(=O)O)C(=O)C(=O)c1ccc(OCCCCCCCCCCCCOc2ccccc2)cc1
**Result** TRUE

**Query** Threshold test, % Inhib of TPA Mouse Ear Edema (1 mg) < 50%: CCCCCCCCCCOc1ccc(OCc2ccccc2)c(C(=O)N(CC(=O)O)CC(=O)O)c1
**Result** FALSE

----------
# Tgt: HSF-PLA2 (extracellular PLA2 obtained from human synovial fluid) (Homo sapiens)
# Construct: extracellular enzyme obtained from human synovial fluid; from tissue; host or cells: human synovial fluid (pooled)
# Sequence (P14555 21-144): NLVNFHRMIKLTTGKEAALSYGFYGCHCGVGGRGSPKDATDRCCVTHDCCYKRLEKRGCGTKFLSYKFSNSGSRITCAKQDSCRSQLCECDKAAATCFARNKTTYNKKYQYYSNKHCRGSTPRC
# Assay protocol: Assay for inhibition of HSF-PLA2 in vitro
# Format: biochemical
# Conditions used: 5 μM test compound; read-out: % Inhib of HSF-PLA2
I would appreciate it if you labelled entries label 1 when inhibition at 5 µM is 50% or higher, otherwise label 0.

Past entries and their recorded results:
{"Compound": "CCCCCCCCCCCCCCCCCCOc1cc(C(=O)N(CC(=O)O)CC(=O)O)cc([N+](=O)[O-])c1 [Example 43]", "Assigned class": "label 0"}
{"Compound": "O=C(O)CCCCCCCCCCOc1cc(OCCCCCCCCCCC(=O)O)cc(C(=O)N(CC(=O)O)CC(=O)O)c1 [Example 35]", "Assigned class": "label 0"}
{"Compound": "CCCCCCCCCCCCCCCCCCOc1cccc(CCC(=O)N(CC(=O)O)CC(=O)O)c1 [Example 79]", "Assigned class": "label 1"}
{"Compound": "CCCCCCCCCCCCCCCCCCOc1cc(OCCOCCOCCOCC)cc(C(=O)N(CC(=O)O)CC(=O)O)c1 [Example 48]", "Assigned class": "label 0"}

**Query** Does the compound CCCCCCCCCCCCCCCCCCOc1cccc(CC(=O)N(CC(=O)O)CC(=O)O)c1 [Example 76] have recorded inhibition at 5 µM that is 50% or more?
**Result** label 0

**Query** Does the compound CCCCCCCCCCCCCCCCCC(=O)Nc1cccc(C(=O)N(CC(=O)O)CC(=O)O)c1 [Example 9] have recorded inhibition at 5 µM that is 50% or more?
**Result** label 0

**Query** Does the compound CCCCCCCCCCCCCCCCCCOc1cc(OCCCOc2cccc([N+](=O)[O-])c2)cc(C(=O)N(CC(=O)O)CC(=O)O)c1 [Example 22] have recorded inhibition at 5 µM that is 50% or more?
**Result** label 1
